Reference source: patent US20120041019A1

# Lookup of reported pIC50 keyed by entry
Molecular target: HIV-1 Protease (Human immunodeficiency virus type 1 group M subtype B, UniProt P04585)
Construct: SensoLyte™ 490 HIV-1 Protease Assay Kit
Experiment: Cell free assay (SensoLyte 490 HIV-1 Protease Assay Kit)
Assay type: biochemical
Please report pIC50 as the negative decimal logarithm of the molar concentration, giving only the number.

Molecule: CCC(C)(C)C(=O)C(=O)N1CCCCC1C(=O)OC(CCc1ccc(OC)c(OC)c1)c1cccc(OCCNC(=O)NC(CC(N)=O)C(=O)NC(Cc2ccccc2)C(CN(CC(C)C)S(=O)(=O)c2ccc(N)cc2)OC)c1 (stereo not shown)
pIC50: 8.74

In: Quick check: pIC50 of CCC(C)(C)C(=O)C(=O)N1CCCCC1C(=O)OC(CCc1ccc(OC)c(OC)c1)c1cccc(OCCNC(=O)NC(C(=O)NC(Cc2ccccc2)C(O)CN(CC(C)C)S(=O)(=O)c2ccc(N)cc2)C(C)C)c1 (stereo not shown) ?
Out: 8.41

In: Quick check: pIC50 of CCC(C)(C)C(=O)C(=O)N1CCCCC1C(=O)OC(CCc1ccc(OC)c(OC)c1)c1cccc(OCC(=O)NC(C(=O)NC(Cc2ccccc2)C(O)CN(CC(C)C)S(=O)(=O)c2ccc(N)cc2)C(C)C)c1 (stereo not shown) ?
Out: 8.10

In: Quick check: pIC50 of CCC(C)(C)C(=O)C(=O)N1CCCCC1C(=O)OC(CCc1ccc(OC)c(OC)c1)c1cccc(OCC(=O)NC(CC(N)=O)C(=O)NC(Cc2ccccc2)C(CN(CC(C)C)S(=O)(=O)c2ccc(N)cc2)OC)c1 (stereo not shown) ?
Out: 8.18

---

Target: HIV-1 Protease (Human immunodeficiency virus type 1 group M subtype B, UniProt P04585)
Construct: SensoLyte™ 490 HIV-1 Protease Assay Kit
Test: Cell free assay (SensoLyte 490 HIV-1 Protease Assay Kit)
Format: biochemical
Conditions: Table 2 Activity Data; read-out: HIV PI IC50 (nM) (Cell-Free Assay)
Note to self: IC50 under 7 nM means rule met, ties and anything higher get rule not met.

Some solved entries appear below for comparison.
Compound: CCC(C)(C)C(=O)C(=O)N1CCCCC1C(=O)OC(CCc1ccc(OC)c(OC)c1)c1cccc(OCC(=O)NCCCOC(=O)NC(Cc2ccccc2)C(O)CN(CC(C)C)S(=O)(=O)c2ccc(OC)cc2)c1 (stereo not shown)
Label value: rule not met
--
Compound: CCC(C)(C)C(=O)C(=O)N1CCCCC1C(=O)OC(CCc1ccc(OC)c(OC)c1)c1cccc(OCCNC(=O)COCC2OCCC2OC(=O)NC(Cc2ccccc2)C(O)CN(CC(C)C)S(=O)(=O)c2ccc(N)cc2)c1 (stereo not shown)
Label value: rule not met
--
Compound: CCC(C)(C)C(=O)C(=O)N1CCCCC1C(=O)OC(CCc1ccc(OC)c(OC)c1)c1cccc(OCCNC(=O)CCCOC(=O)NC(Cc2ccccc2)C(O)CN(CC(C)C)S(=O)(=O)c2ccc([N+](=O)[O-])cc2)c1 (stereo not shown)
Label value: rule not met
--
Compound: CCC(C)(C)C(=O)C(=O)N1CCCCC1C(=O)OC(CCc1ccc(OC)c(OC)c1)c1cccc(OCC(=O)NCCCOC(=O)NC(Cc2ccccc2)C(O)CN(CC(C)C)S(=O)(=O)c2ccc(N)cc2)c1 (stereo not shown)
Label value: rule not met
--
Compound: CCC(C)(C)C(=O)C(=O)N1CCCCC1C(=O)OC(CCc1ccc(OC)c(OC)c1)c1cccc(OCC(=O)NC(CC(N)=O)C(=O)NC(Cc2ccccc2)C(O)CN(CC(C)C)S(=O)(=O)c2ccc(N)cc2)c1 (stereo not shown)
Label value: rule met
--
Compound: CCC(C)(C)C(=O)C(=O)N1CCCCC1C(=O)OC(CCc1ccc(OC)c(OC)c1)c1cccc(OCCNC(=O)CCCOC(=O)NC(Cc2ccccc2)C(O)CN(CC(C)C)S(=O)(=O)c2ccc(N)cc2)c1 (stereo not shown)
Label value: rule met

In: For CCC(C)(C)C(=O)C(=O)N1CCCCC1C(=O)OC(CCc1ccc(OC)c(OC)c1)c1cccc(OCC(=O)NCCCOC(=O)NC(Cc2ccccc2)C(O)CN(CC(C)C)S(=O)(=O)c2ccc([N+](=O)[O-])cc2)c1 (stereo not shown) , is the recorded IC50 below the cut-off of 7 nM?
Out: rule not met
